Each item that follows carries a reported self-cleavage kobs at 40 uM GlcN6P.
B1: glmS ribozyme (parent)
chain: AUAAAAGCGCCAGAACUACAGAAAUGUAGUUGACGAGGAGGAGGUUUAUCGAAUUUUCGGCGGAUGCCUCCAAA

- Variants of: B1
- MEASUREMENT NOTES: self-cleavage kobs at 40 uM GlcN6P; higher = faster cleavage; RNA array
- ASSAY CONTEXT: with glucosamine-6-phosphate
This sample holds only a part of the variants without activity.
PROPERTY: self-cleavage kobs at 40 uM GlcN6P

ALTERATION	RECORDED VALUE
U55A C67G	0.000126 s⁻¹
A15U C34A A64U C68A	< 1e-05 s⁻¹
C10G A12U U30G	< 1e-05 s⁻¹
A12U U69G	2.68e-05 s⁻¹
A64G C70G	< 1e-05 s⁻¹
A14C G29U C50G	0.000119 s⁻¹
G40A U65G	3.72e-05 s⁻¹
C8G G41U C71U	< 1e-05 s⁻¹
A33C A36G C67G	< 1e-05 s⁻¹
A6U A48G	< 1e-05 s⁻¹
A14G U31C G41C G63A	< 1e-05 s⁻¹
G38A C67A	< 1e-05 s⁻¹
A15U G38U U55C	< 1e-05 s⁻¹
G29U A42G G43A	< 1e-05 s⁻¹
A6C G44C	< 1e-05 s⁻¹
G43C A48U G51C G63A C71U	< 1e-05 s⁻¹
A12U U30G U56G	0.000609 s⁻¹
C10U G59C	< 1e-05 s⁻¹
